Tested on: CAKI-1
Test: NCI tumour cell line growth inhibition, 48 h
Calls of active or inactive are those of the source. No stated cut-off is given here; in the data, active = GI50 up to about 1.1 µM and inactive = higher.
Metric: GI50

- CC(C)CCCC(C)[C@H]1CC[C@H]2N/C(=N/Cc3ccccc3)CCC[C@]12C (stereo not given in full): 2.25 µM (inactive)
- COC(=O)c1ccc(NCc2c(O)ccc(O)c2Br)cc1Cl: 15.8 µM (inactive)
- NC(CCOCCP(=O)(O)CCC1C=CC=CC1)C(=O)O (stereo not given): > 100 µM (inactive)
- NS(=O)(=O)c1ccc(NC(=S)NC(=O)Nc2ccc(Cl)c(Cl)c2)cc1: 18.7 µM (inactive)
- CC1C(NNC(N)=O)Oc2cc3c(cc2C1c1ccccc1O)OCO3 (stereo not given): 29.5 µM (inactive)

---

Tested on: IGROV-1
Assay: NCI tumour cell line growth inhibition, 48 h
Active and inactive are the calls of the source. Cut-off read from the data, not from the text of the source: active = GI50 up to about 1.1 µM and inactive = higher.
Metric: GI50

- c1ccc(CN2CCC3(CC2)SSC2(CCN(Cc4ccccc4)CC2)SS3)cc1: > 100 µM (inactive)
- CCc1cccc(C)c1N1C(=O)C(=O)C(c2nc3ccccc3o2)/C(=N/NC(=S)NN)C1=O (stereo unspecified): > 100 µM (inactive)
- O=[N+]([O-])c1cc(Cl)ccc1S(=O)(=O)c1ccccc1: > 100 µM (inactive)
- COc1cc(O)c2c(c1)C(=O)c1cc3c(c(O)c1C2=O)C(OC1OC(C)C(OC)C(O)C1OC)C(OC)C(C)(O)C3=O (stereo unspecified): 2.12 µM (inactive)
- O=C(O)/C(Cl)=C(\Cl)C(=O)NC1C2CC3CC(C2)CC1C3 (stereo unspecified): > 100 µM (inactive)
- O=C(CNC(c1ccccc1)(c1ccccc1)c1ccccc1)NC1CCCCC1NC(=O)CNC(c1ccccc1)(c1ccccc1)c1ccccc1 (stereo unspecified): > 100 µM (inactive)

---

Documented GI50 across a set of molecules
System: T47D
Assay: NCI tumour cell line growth inhibition, 48 h
Activity calls are given as the source filed them. Cut-off read from the data, not from the text of the source: active = GI50 up to about 1.1 µM and inactive = higher.
Metric: GI50

- NNC(=O)COc1nc(-c2cccs2)nc2ccc(I)cc12: 1.47 µM (inactive)
- N#C/C(=C\c1ccc2[nH]ccc2c1)C(=O)NCCCCNC(=O)/C(C#N)=C/c1ccc2[nH]ccc2c1: > 10 µM (inactive)
- CC(C)(C)c1cc(/C=C(\C#N)C(=O)NCCO)cc(C(C)(C)C)c1O: 20.1 µM (inactive)
- CCOC1=C(c2ccccc2)N2CCCCC2O1 (centres undefined): 2.04 µM (inactive)

---

Tested on: SW-620
Test: NCI tumour cell line growth inhibition, 48 h
Calls of active or inactive are those of the source. No stated cut-off is given here; in the data, active = GI50 up to about 1.1 µM and inactive = higher.
Documented GI50 across a set of compounds
Metric: GI50

- O=C(O)/C(Cl)=C(\Cl)C(=O)NC1C2CC3CC(C2)CC1C3 (centres undefined): > 100 µM (inactive)
- CCOc1cc(NC(C)=O)ccc1C(=O)NN1C(=O)/C(=C/c2ccc(Cl)cc2)N=C1c1ccccc1: > 100 µM (inactive)
- COCCOC(C)C(=O)C(O)S(=O)(=O)O (centres undefined): > 100 µM (inactive)
- c1ccc(CN2CCC3(CC2)SSC2(CCN(Cc4ccccc4)CC2)SS3)cc1: 5.48 µM (inactive)
- COc1ccc(Oc2nc3c(N)cc(C(F)(F)F)cc3nc2-c2ccccc2)cc1: 58.1 µM (inactive)
- COS(=O)c1cc(Cl)cc(Cl)c1OC(=O)CSSCC(=O)Oc1c(Cl)cc(Cl)cc1S(=O)OC (centres undefined): 28.4 µM (inactive)
- CC1N(C)C(=O)OC12CCN(CCCC(=O)c1ccc(F)cc1)CC2 (centres undefined): > 100 µM (inactive)
- O=C1N[C@@H]([C@H](CCCCCO)OC(=O)c2ccccc2)CO1: > 100 µM (inactive)
- CC(C)C[C@H](NC(=O)[C@@H](N)Cc1cccc2ccccc12)B(O)O: < 0.015 µM (active)
- Cc1sc(N/N=C2\C(=O)Nc3ccccc32)nc1-c1ccccc1: 23.6 µM (inactive)
- NC(CCOCCP(=O)(O)CCC1C=CC=CC1)C(=O)O (centres undefined): > 100 µM (inactive)
- Cc1ccc(S(=O)(=O)NNC2Oc3cc4c(cc3C(c3ccccc3O)C2C)OCO4)cc1 (centres undefined): 13.7 µM (inactive)
- CCC1CN2CCc3cc(OC)c(OC)cc3C2CC1CC1c2cc(OC)c(OC)cc2CCN1C(=O)C1CCCN1C(=O)OCc1ccccc1 (centres undefined): 14.8 µM (inactive)
- N/C(=N\O)N/N=C\c1c2ccccc2c(Cl)c2ccccc12: 5.22 µM (inactive)
